target: β-secretase(BACE) (Homo sapiens, UniProt P56817); construct: purchased Panvera; assay: BACE FS1% Inhibition Assay; assay type: biochemical; conditions: 3 μM test compound; FS1 substrate
Sequence (P56817 46-501): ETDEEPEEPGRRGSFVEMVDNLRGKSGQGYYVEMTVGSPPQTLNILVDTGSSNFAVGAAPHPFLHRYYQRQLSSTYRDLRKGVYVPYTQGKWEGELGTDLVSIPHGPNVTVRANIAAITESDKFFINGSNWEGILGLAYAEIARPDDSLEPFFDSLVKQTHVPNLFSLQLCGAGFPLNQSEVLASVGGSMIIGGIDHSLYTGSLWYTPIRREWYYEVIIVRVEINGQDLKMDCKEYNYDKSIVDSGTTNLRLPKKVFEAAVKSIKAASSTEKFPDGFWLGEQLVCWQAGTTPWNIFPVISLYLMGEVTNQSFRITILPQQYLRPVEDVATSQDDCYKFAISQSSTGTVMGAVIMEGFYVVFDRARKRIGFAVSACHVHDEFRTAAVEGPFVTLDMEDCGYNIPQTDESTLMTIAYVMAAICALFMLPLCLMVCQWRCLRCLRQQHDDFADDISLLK
PROPERTY_LABEL: % Inhibition (FS) 3 μM (%)

MOLECULE	UNIT_SYMBOL	% Inhibition (FS) 3 μM
NC1=Nc2ccc(Oc3c(F)cccc3F)cc2CN1CCC(=O)NC1C2CC3CC(C2)CC1C3 (centres unmarked)	%	66

(A) CN(C(=O)c1cccc(CN2Cc3cc(Oc4ccccc4-c4nc5ccccc5s4)ccc3N=C2N)c1)C1CCCCC1
(B) NC1=Nc2ccc(-c3ccccc3F)cc2CN1CCNC(=O)C1CCCC1
(C) CCCC(CCCC(=O)NC1CCCCC1)N1Cc2cc(Oc3ccccc3)ccc2N=C1N (centres unmarked)
Query :: Ascending by % Inhibition (FS) 3 μM, please: list the molecules accordingly. A ranking is expressed here by listing the labels in the requested order.
Result :: A, C, B
(A: 31%, C: 68%, B: 110%)

----------
target: β-secretase(BACE) (Homo sapiens, UniProt P56817); construct: purchased Panvera; experiment: BACE FS1% Inhibition Assay; type: biochemical; conditions: 0.3 μM test compound; FS1 substrate; read-out: % Inhibition (FS)
PROPERTY_LABEL: inhibition at 0.3 µM (%)

Completed entries (count: 2):
COMPOUND	inhibition at 0.3 µM [%]
NC1=Nc2ccc(Oc3ccccc3)cc2CN1[C@@H](CCC(=O)N(Cc1nnn[nH]1)C1CCCCC1)C1CCCCC1 [Compound 787]	108
CN(C(=O)CC[C@@H](C1CCC(=O)CC1)N1Cc2cc(Oc3ccccc3)ccc2N=C1N)C1CCCCC1 [Compound 732]	135

(1) COC(=O)[C@H](COCc1ccccc1)NC(=O)CC[C@@H](C1CCOCC1)N1Cc2cc(Oc3ccccc3)ccc2N=C1N [Compound 785]
(2) NC1=Nc2ccc(Oc3ccccc3)cc2CN1[C@@H](CCC(=O)N[C@@H](COCc1ccccc1)C(=O)O)C1CCOCC1 [Compound 782]
(3) COC1CCCC(C(=O)NCCN2Cc3cc(-c4ccccc4Cl)ccc3N=C2N)C1 (stereo not shown) [Compound 692]
Query :: Order these by inhibition at 0.3 µM, descending, and give the full ranking. Form field (ranking): labels in requested order.
Result :: 2, 1, 3

----------
molecular target: β-secretase(BACE) (Homo sapiens); construct: purchased Panvera; assay: BACE FS1% Inhibition Assay; format: biochemical; conditions: 3 μM test compound; FS1 substrate
PROPERTY_LABEL: % Inhibition (FS) 3 μM (%)

MOLECULE	PROPERTY_LABEL	UNIT_SYMBOL	OBSERVED_VALUE
NC1=Nc2ccc(-c3ccccc3-c3ccccc3)cc2CN1CCNC(=O)C1CCCCC1	% Inhibition (FS) 3 μM	%	51
CCCC(CCC)C(=O)N1CCC(CN2Cc3cc(Oc4ccccc4)ccc3N=C2N)CC1	% Inhibition (FS) 3 μM	%	98

(I) NC1=Nc2ccc(Oc3ccccc3)cc2CN1C(CNC(=O)C1CCCC1)C1CCCCC1 (centres unmarked)
(II) CC(C)(C)OC(=O)N1CCC(CN2Cc3cc(Oc4ccccc4)ccc3N=C2N)CC1
(III) CCCCCCCCC(CCC(=O)NC1CCCCCC1)N1Cc2cc(Oc3ccccc3)ccc2N=C1N (centres unmarked)
Query :: Could you please order the items by % Inhibition (FS) 3 μM, going from the lowest number to the highest? Return the labels ranked in the requested order, please.
Result :: II, III, I

src = patent US8383637B2
